Each recorded value in this set is attributed to patent US20260265391A1.

target: T1, cynomolgus CD40-Fc protein (cynomolgus, UniProt G7PG38 21-193); assay: BLI (ForteBio), CD40-Fc on AHQ sensor, 100 nM Fab in solution, monovalent, 1:1 model
T1 construct: not shown: Fc part
Mark each entry True if its Kd sits below 3 nM, and False for all others.

Field: example entries. Status: answers known.
>>> category("ADI-55147 Fab (Fab, V domains shown, also called Fab fragment of ADI-55147) VH: QVQLVESGGGVVQPGRSLRLSCAASGFTFGSYGMHWVRQAPGKGLEWVAVISYEGVKKYYADSVKGRFTISRDNSKNTLYLQMNSLRAEDTAVYYCARDTSRGHDIWGQGTMVTVSS VL: EIVLTQSPGTLSLSPGERATLSCRASQSVSYDYLAWYQQKPGQAPRLLIYGASARANGIPDRFSGSGSGTDFTLTISRLEPEDFAVYYCQQYADYPPFTFGGGTKVEIK")
"False"
>>> category("ADI-55168 Fab (Fab, V domains shown) VH: EVQLVESGGGLVQPGRSLRLSCAASGFTFDTYAMHWVRQAPGKGLEWVSGISWSSGSIHYADSVKGRFTISRDNAKNSLYLQMNSLRAEDTAVYYCAKDPTATTGARGYFDLWGRGTLVTVSS VL: DIQMTQSPSSVSASVGDRVTITCEASQVISSWLAWYQQKPGKAPKLLIYAASYLQSGVPSRFSGSGSGTDFTLTISSLQPEDFATYYCQQHSSFPPTFGGGTKVEIK")
"True"
>>> category("ADI-55142 Fab (Fab, V domains shown) VH: QVQLVESGGGVVQPGRSLRLSCAASGFTFEKYGMHWVRQAPGKGLEWVAVISYEGEKKYYADSVKGRFTISRDNSKNTLYLQMNSLRAEDTAVYYCARDTSRGHDIWGQGTMVTVSS VL: EIVLTQSPGTLSLSPGERATLSCRASQSVSYSYLAWYQQKPGQAPRLLIYGASSRANGIPDRFSGSGSGTDFTLTISRLEPEDFAVYYCSDYADYPPFTFGGGTKVEIK")
"True"

Take the binder ADI-55164 Fab (Fab, V domains shown, also called Fab fragment of ADI-55164) VH: EVQLVESGGGLVQPGRSLRLSCAASGFTFDDYAMHWVRQAPGKGLEWVSGISWSSDSIHYADSVKGRFTISRDNAKNSLYLQMNSLRAEDTAVYYCAKDPTATTGARGYFDLWGRGTLVTVSS VL: DIQMTQSPSSVSASVGDRVTITCRASKVISSWLAWYQQKPGKAPKLLIYAASYLESGVPSRFSGSGSGTDFTLTISSLQPEDFATYYCQQHSSFPPTFGGGTKVEIK and say whether its Kd is less than 3 nM.
True

Same again, this time with ADI-55144 Fab (Fab, V domains shown) VH: QVQLVESGGGVVQPGRSLRLSCAASGFTFEKYGMHWVRQAPGKGLEWVAVISYEGTKKYYADSVKGRFTISRDNSKNTLYLQMNSLRAEDTAVYYCARDTSRGHDIWGQGTMVTVSS VL: EIVLTQSPGTLSLSPGERATLSCRASQSVSYSYLAWYQQKPGQAPRLLIYGASSLATGIPDRFSGSGSGTDFTLTISRLEPEDFAVYYCQQYSDYPPFTFGGGTKVEIK
True
